B1: BTBD1 (parent)
chain: YGSIHGPTDYQVNIQIIEYEKKQT

- Variants of: B1
- experimental.protocol: protein stability index of a GFP-peptide fusion (GPS, HEK-293T) (PSI 1-6); higher = more stable;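 also: lentivirally expressed fusions sorted by FACS into six bins by GFP to DsRed ratio, PSI derived from sequencing read proportions per bin multiplied by bin number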
- condition.details: c terminus: a fixed tail appended
measurement.name: protein stability index

    mutation         measurement_name  obs_value
 0      I16H  protein stability index       3.91
 1      I16N  protein stability index       3.55
 2       Y1R  protein stability index       3.44
 3      Q11G  protein stability index       2.57
 4      N13Y  protein stability index       2.19
 5      N13G  protein stability index       3.34
 6       H5N  protein stability index       2.13
 7      Y19K  protein stability index       3.38
 8      Q11R  protein stability index       2.32
 9      K22M  protein stability index       2.59
10      K21M  protein stability index       2.02
11       G6Q  protein stability index       3.26
12      K21P  protein stability index       1.95
13       P7V  protein stability index       2.63
14       G2P  protein stability index       2.81
15       D9G  protein stability index       1.75
16       D9A  protein stability index       3.12
17      E18V  protein stability index       3.19
18      Q15F  protein stability index        2.4
19      V12P  protein stability index       2.95
20      E20R  protein stability index       2.08
21      K21L  protein stability index       1.65
22      K21G  protein stability index       2.04
23      Y10L  protein stability index       2.87
24      Q23N  protein stability index       2.88
25       Y1F  protein stability index       2.52
26      Y19N  protein stability index       3.29
27      I16W  protein stability index       2.48
28       G2H  protein stability index       2.36
29       Y1E  protein stability index       3.93
30      I14P  protein stability index       3.77
31      V12I  protein stability index       2.72
32       Y1G  protein stability index       3.66
33      Y10A  protein stability index       4.06
34      I16T  protein stability index       3.58
35      Q23A  protein stability index       2.33
36       G6K  protein stability index          3
37      I16V  protein stability index       3.15
38      K22L  protein stability index       2.03
39       H5K  protein stability index       3.72
40       T8R  protein stability index       2.57
41      Y10R  protein stability index       4.12
42       T8F  protein stability index       2.17
43       G2R  protein stability index        2.5
44      T24E  protein stability index       3.08
45      I14W  protein stability index       2.76
46      Q11K  protein stability index       2.15
47       G2F  protein stability index       2.48
48      T24I  protein stability index       2.08
49       P7M  protein stability index       2.31
50       I4Q  protein stability index       3.06
51       G2W  protein stability index        2.5
52       G6T  protein stability index       3.19
53       G2S  protein stability index       2.45
54       G6W  protein stability index       2.71
55      I14T  protein stability index       3.58
56      E20A  protein stability index       2.39
57      Y19V  protein stability index       2.44
58      Q15R  protein stability index       2.67
59      Q15I  protein stability index       2.74
60      K22G  protein stability index       2.24
61       Y1W  protein stability index       2.67
62      Q15S  protein stability index       2.57
63       G6P  protein stability index       3.18
64      T24Y  protein stability index       2.21
65       S3D  protein stability index       3.13
66      N13V  protein stability index       1.87
67       H5A  protein stability index       3.31
68       I4A  protein stability index       2.95
69      I16Y  protein stability index       2.71
70       P7D  protein stability index       3.29
71      Q23C  protein stability index        1.8
72      Q15V  protein stability index        1.6
73       Y1M  protein stability index       3.73
74      I14A  protein stability index       3.47
75      K21Y  protein stability index       1.92
76      E20P  protein stability index       1.72
77      K22V  protein stability index       2.54
78       Y1V  protein stability index       3.84
79      I16E  protein stability index       3.81
80       I4K  protein stability index       2.24
81      Q11I  protein stability index       1.68
82      T24N  protein stability index        2.9
83      K22N  protein stability index        2.5
84      Y19F  protein stability index       2.14
85       S3G  protein stability index       2.88
86       G2A  protein stability index       1.62
87       D9H  protein stability index       1.63
88      Y10K  protein stability index       4.24
89      V12L  protein stability index       3.28
90      Q11A  protein stability index       2.26
